tested on: mKate-E0771 cells; assay: MTT cell viability assay; assay type: cell-based, mouse; conditions: H5 3.1 (head prints mM), 1 h, 37 °C; Data 4
Where no end group is shown, it is not given here.
Quantity Measured: Cell viability (MTT), normalized to untreated cells (%)
The figure you give is taken to be in %; do not add the unit.

Could you share what Cell viability (MTT), normalized to untreated cells was measured for IEPDAL [H5, FRET hexapeptide IEPDAL with BODIPY-FL fluorophore at the N-terminal end and Dabcyl quencher] , tested on mKate-E0771 cells?
85

====

system: mKate-E0771 cells; test: MTT cell viability assay; assay type: cell-based, mouse; details: H5 6.3 (head prints mM), 1 h, 37 °C; Data 1
Where no end group is shown, it is not given here.
Quantity Measured: Cell viability (MTT), normalized to untreated cells (%)
The figure you give is taken to be in %; do not add the unit.

Form field: reported Cell viability (MTT), normalized to untreated cells of IEPDAL [H5, FRET hexapeptide IEPDAL with BODIPY-FL fluorophore at the N-terminal end and Dabcyl quencher]
99

====

tested on: mKate-E0771 cells; assay: MTT cell viability assay; format: cell-based, mouse; settings: H5 12.5 (head prints mM), 1 h, 37 °C; Data 6
Where no end group is shown, it is not given here.
Quantity Measured: Cell viability (MTT), normalized to untreated cells

Form field: reported Cell viability (MTT), normalized to untreated cells of IEPDAL [H5, FRET hexapeptide IEPDAL with BODIPY-FL fluorophore at the N-terminal end and Dabcyl quencher]
88%

====

system: mKate-E0771 cells; assay: MTT cell viability assay; format: cell-based, mouse; settings: H5 3.1 (head prints mM), 1 h, 37 °C; Data 1
Where no end group is shown, it is not given here.
Quantity Measured: Cell viability (MTT), normalized to untreated cells (%)
The figure you give is taken to be in %; do not add the unit.

Form field: reported Cell viability (MTT), normalized to untreated cells of IEPDAL [H5, FRET hexapeptide IEPDAL with BODIPY-FL fluorophore at the N-terminal end and Dabcyl quencher]
107

====

Test system: mKate-E0771 cells
Assay: MTT cell viability assay
Assay type: cell-based, mouse
Settings: H5 12.5 (head prints mM), 1 h, 37 °C; Data 1
Experimental: Supplementary Figure 9. Cell viability assays in mKate-E0771 cancer cells. mKate-E0771 cells were plated in 96-well plates (50,000 cells well-1) and incubated at the […] Cell viability was determined using a commercially available MTT kit (Invitrogen) with values normalized to untreated cells. Data presented as mean values±SEM (2 independent experiments with 3 replicates for each). P values were obtained from ONE-ANOVA tests with multiple comparisons. Source data provided as a Source Data file. […]
Where no end group is shown, it is not given here.
Quantity Measured: Cell viability (MTT), normalized to untreated cells (%)
The figure you give is taken to be in %; do not add the unit.

Form field: reported Cell viability (MTT), normalized to untreated cells of IEPDAL [H5, FRET hexapeptide IEPDAL with BODIPY-FL fluorophore at the N-terminal end and Dabcyl quencher]
107

====

tested on: mKate-E0771 cells; assay: MTT cell viability assay; assay type: cell-based, mouse; settings: H5 3.1 (head prints mM), 1 h, 37 °C; Data 2
Where no end group is shown, it is not given here.
Quantity Measured: Cell viability (MTT), normalized to untreated cells

Form field: reported Cell viability (MTT), normalized to untreated cells of IEPDAL [H5, FRET hexapeptide IEPDAL with BODIPY-FL fluorophore at the N-terminal end and Dabcyl quencher]
102%
